Give measured pIC50 for each item. Keep answers brief.
Target: L-type calcium channel (LTCC) subunits (α1c, α2δ, and β1) (Rattus norvegicus)
Construct: expressed in transfected cells; pcDNA6.2DEST α1c, pcDNA3.2DEST β1, pcDNA3.1-Zeo α2δ)
Sequence (P22002 whole entry): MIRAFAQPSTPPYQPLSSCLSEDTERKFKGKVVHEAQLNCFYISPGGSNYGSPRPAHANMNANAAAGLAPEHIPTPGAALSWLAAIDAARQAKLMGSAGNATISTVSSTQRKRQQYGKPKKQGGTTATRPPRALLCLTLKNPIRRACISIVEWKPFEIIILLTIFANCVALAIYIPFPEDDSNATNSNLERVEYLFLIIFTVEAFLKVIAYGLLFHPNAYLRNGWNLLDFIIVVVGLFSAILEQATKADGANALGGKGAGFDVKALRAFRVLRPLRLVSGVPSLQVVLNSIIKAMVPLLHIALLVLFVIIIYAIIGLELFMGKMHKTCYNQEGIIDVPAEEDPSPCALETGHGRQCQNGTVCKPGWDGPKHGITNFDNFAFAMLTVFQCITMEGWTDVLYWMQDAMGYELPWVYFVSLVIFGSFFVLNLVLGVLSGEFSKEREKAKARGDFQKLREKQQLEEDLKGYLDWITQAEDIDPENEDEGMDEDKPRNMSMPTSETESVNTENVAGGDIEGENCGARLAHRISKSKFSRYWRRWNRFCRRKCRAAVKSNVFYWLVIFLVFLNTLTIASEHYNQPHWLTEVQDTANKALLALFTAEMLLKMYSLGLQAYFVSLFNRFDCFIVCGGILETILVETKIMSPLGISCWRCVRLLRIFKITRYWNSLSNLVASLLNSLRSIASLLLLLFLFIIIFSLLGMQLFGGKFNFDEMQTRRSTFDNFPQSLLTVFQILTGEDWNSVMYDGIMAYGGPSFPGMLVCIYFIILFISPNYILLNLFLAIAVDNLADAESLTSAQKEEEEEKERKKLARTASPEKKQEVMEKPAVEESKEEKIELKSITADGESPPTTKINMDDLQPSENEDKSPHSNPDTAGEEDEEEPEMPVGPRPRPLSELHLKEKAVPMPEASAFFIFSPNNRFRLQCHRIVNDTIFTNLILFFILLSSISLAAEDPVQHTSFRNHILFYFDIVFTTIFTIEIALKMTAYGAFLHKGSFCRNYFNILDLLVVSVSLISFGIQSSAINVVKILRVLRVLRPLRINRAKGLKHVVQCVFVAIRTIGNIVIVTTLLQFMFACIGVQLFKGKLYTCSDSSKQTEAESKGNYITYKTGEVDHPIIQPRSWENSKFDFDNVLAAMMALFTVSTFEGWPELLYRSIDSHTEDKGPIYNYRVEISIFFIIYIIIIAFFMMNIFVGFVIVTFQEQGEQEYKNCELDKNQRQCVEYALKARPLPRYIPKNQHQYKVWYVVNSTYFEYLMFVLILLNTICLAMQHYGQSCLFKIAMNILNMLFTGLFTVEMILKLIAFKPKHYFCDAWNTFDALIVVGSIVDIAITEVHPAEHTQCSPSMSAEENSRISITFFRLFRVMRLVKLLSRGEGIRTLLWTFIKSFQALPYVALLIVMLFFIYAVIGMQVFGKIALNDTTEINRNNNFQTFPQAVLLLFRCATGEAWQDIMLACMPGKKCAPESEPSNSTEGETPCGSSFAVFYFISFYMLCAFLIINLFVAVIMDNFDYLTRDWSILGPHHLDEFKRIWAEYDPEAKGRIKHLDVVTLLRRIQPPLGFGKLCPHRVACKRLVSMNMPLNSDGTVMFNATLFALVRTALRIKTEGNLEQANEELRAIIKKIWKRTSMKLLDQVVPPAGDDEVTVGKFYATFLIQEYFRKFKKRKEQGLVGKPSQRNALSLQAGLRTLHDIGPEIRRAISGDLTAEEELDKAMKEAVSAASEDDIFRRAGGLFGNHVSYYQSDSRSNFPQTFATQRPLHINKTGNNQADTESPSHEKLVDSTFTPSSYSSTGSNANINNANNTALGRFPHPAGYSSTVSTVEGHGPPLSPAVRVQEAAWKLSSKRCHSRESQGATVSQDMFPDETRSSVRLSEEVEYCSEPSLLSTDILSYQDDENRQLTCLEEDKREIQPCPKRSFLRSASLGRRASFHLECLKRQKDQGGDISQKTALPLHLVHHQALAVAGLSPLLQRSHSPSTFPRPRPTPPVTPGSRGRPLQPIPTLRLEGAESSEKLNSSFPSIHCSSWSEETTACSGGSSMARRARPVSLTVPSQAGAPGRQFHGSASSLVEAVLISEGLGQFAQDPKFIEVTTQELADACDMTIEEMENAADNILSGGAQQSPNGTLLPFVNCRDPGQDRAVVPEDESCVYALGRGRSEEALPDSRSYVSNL
Sequence (P54290 25-944 partner limits assumed): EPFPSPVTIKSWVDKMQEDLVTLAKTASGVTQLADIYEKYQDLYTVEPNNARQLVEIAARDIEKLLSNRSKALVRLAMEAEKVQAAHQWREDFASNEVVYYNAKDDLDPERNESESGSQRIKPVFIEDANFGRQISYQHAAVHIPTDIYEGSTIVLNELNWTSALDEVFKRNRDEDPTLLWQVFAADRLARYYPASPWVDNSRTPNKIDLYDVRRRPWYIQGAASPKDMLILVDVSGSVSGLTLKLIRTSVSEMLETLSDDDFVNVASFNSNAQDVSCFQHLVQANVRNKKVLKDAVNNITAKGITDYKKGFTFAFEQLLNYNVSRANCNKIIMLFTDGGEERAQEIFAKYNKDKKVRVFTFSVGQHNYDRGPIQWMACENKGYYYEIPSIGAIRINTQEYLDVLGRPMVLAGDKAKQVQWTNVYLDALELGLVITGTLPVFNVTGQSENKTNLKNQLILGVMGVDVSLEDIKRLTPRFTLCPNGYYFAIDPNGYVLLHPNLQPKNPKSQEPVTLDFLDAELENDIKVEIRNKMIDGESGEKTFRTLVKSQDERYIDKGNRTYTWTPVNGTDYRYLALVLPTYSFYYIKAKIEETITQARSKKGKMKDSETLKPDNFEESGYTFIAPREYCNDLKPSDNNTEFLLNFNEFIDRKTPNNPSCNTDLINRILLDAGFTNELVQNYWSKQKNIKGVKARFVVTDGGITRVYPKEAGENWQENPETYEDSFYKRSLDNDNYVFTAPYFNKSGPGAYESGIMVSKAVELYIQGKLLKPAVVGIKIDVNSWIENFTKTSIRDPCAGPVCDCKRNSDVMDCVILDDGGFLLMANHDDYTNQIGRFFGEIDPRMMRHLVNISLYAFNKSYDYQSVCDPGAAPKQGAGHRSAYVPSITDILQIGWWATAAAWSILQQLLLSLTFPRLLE
Sequence (P54290 945-1091 partner limits assumed): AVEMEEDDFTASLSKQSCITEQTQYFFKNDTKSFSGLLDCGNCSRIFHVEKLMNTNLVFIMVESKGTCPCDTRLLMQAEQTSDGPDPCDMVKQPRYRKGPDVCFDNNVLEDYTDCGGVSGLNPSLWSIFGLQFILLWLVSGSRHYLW
Sequence (P54283 whole entry partner): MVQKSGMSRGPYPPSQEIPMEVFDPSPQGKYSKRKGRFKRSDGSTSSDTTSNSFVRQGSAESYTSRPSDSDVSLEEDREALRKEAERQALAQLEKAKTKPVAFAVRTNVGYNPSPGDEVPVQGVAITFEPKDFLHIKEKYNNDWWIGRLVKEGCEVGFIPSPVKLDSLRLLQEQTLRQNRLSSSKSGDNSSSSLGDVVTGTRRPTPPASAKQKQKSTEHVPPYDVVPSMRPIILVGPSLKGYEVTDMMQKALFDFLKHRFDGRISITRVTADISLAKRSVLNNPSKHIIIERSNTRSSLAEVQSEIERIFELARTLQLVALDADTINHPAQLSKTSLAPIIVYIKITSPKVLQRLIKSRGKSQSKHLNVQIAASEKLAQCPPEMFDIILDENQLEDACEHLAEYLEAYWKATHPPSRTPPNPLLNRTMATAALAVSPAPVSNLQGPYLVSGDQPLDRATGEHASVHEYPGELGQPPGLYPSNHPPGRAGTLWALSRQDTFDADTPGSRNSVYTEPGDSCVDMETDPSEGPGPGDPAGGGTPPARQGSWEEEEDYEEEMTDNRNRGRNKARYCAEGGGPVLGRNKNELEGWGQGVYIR
Assay: FLIPR calcium mobilization assay for L-type calcium channel (HEK293 cells expressing recombinant LTCC subunits)
Assay type: cell-based
Settings: calcium mobilization assay for L-type calcium channel blocking activity
Procedure: Recombinant human embryonal kidney cells (HEK293, ATCC) stably transfected with either N-type calcium channel (NTCC) subunits (α1b, α28, and β3) or L-type calcium channel (LTCC) subunits (α1c, α2δ, and […]) were routinely cultured in growth medium consisting of Dulbecco's Modified Eagles Medium containing 10% FBS, 100 U/mL penicillin, 100 μg/mL streptomycin, 4 mM L-glutamine, 500 μg/mL geneticin (G418), 20 μg/mL Blasticidin S (InVivogen, San Diego, Calif.) and 500 μg/mL zeocin (InVivogen). […]
pIC50: −log10 of the molar value.

Consider "O=C(NC1CC1)c1cccc(C2=CC(=O)N(S(=O)(=O)c3cccc(C(F)(F)F)c3)CC2)n1" . Its measured pIC50 is < 4.70

Documented pIC50 of "O=C(NC1CC1)c1cccc(C2=CCN(Cc3ccc(OC(F)(F)F)cc3)CC2)n1" : < 4.70

---

So I've got a bunch of compounds here, and I need their log10(IC50) values.
Target: N-type calcium channel (NTCC) (Homo sapiens, UniProt Q00975)
Construct: endogenous in cells
Test: FLIPR calcium mobilization assay for N-type calcium channel (differentiated IMR32 cells)
Conditions: N-type calcium channel blockers, calcium mobilization in vitro assay
Structures can show the parent of a compound that is named as a salt.
Please be aware that the numbers have been log10-transformed from IC50 in nM.

Lab book: log10(IC50) of "O=C(NC1CC1)c1cccc(C2=CCN(Cc3ccc(OC(F)(F)F)cc3)CC2)n1" noted as 2.97

The reported value for "O=C(NC1CC1)c1nc(C2=CCN(S(=O)(=O)c3cccc(C(F)(F)F)c3)CC2)ccc1Cl" in terms of log10(IC50) is 1.78

// sample "O=C(NCCC(F)(F)F)c1ncccc1C1=CCN(S(=O)(=O)c2ccc(OC(F)(F)F)cc2)CC1" , its log10(IC50) was 2.97

Record summary for "N=C(NCC1CC1)c1cccc(C2=CCN(S(=O)(=O)c3ccc(OC(F)(F)F)cc3)CC2)n1" : reported log10(IC50) = 2.51

What the record says about "O=C(NCC(F)(F)F)c1cccc(C2=CCN(S(=O)(=O)c3ccc(OC(F)(F)F)cc3)CC2)n1" : log10(IC50) is 2.63

Form: compound = "O=C(NC1CC1)c1cccc(C2=CCN(S(=O)(=O)c3ccccc3C(F)(F)F)CC2)n1" ; log10(IC50) = 1.90

Form: compound = "O=C(NCC1CC1)c1ccnc(C2=CCN(S(=O)(=O)c3cccc(C(F)(F)F)c3)CC2)n1" ; log10(IC50) = 2.11

The compound "O=C(NC1CC1)c1cccc(C2=CCN(S(=O)(=O)c3ccc(OC(F)(F)F)cc3)CC2)n1" showed log10(IC50) equal to 2.46

For this compound ( "O=C(NCCC(F)(F)F)c1cccc(C2=CCN(S(=O)(=O)c3cccc(C(F)(F)F)c3)CC2)n1" ), measured log10(IC50) is 1.70

The reported value for "O=C(NC1CC1)c1ccnc(C2=CCN(S(=O)(=O)c3ccc(OC(F)(F)F)cc3)CC2)n1" in terms of log10(IC50) is 2.38

// log10(IC50) lookup, compound = "NC(=O)c1ccnc(C2=CCN(S(=O)(=O)c3cccc(C(F)(F)F)c3)CC2)n1" , result: 2.56

log10(IC50) measured on "N#Cc1cccc(S(=O)(=O)N2CC=C(c3cccc(C(=O)NC4CC4)n3)CC2)c1" = 1.70

get_value(item= "N#Cc1cccc(C2=CCN(S(=O)(=O)c3cccc(C(F)(F)F)c3)CC2)n1" , readout=log10(IC50)) returns 3.20

For reference, reported log10(IC50) for "O=C(NCC1CC1)c1ncccc1C1=CCN(S(=O)(=O)c2cccc(C(F)(F)F)c2)CC1" stands at 2.15

log10(IC50) reported for this compound "O=C(Nc1cccc(C2=CCN(S(=O)(=O)c3cccc(C(F)(F)F)c3)CC2)n1)C1CC1" : 2.48

log10(IC50) for O=C(NC1CC1)c1cccc(C2=CC3CCC(C2)N3S(=O)(=O)c2cccc(C(F)(F)F)c2)n1 (centres unmarked) is 1.70

Kindly note the recorded log10(IC50) for "O=C(NCC(F)(F)F)c1cccc(C2=CCN(S(=O)(=O)c3cccc(C(F)(F)F)c3)CC2)n1" , which is 1.48

Value of log10(IC50) reported for the compound "NC(=O)c1cccc(C2=CCN(S(=O)(=O)c3cccc(C(F)(F)F)c3)CC2)n1" is 2.77

compound O=C(NC1CC1)c1cccc(C2=CCN(C(CO)c3ccc(OC(F)(F)F)cc3)CC2)n1 (centres unmarked) , log10(IC50) observed: 3.13

The recorded log10(IC50) for "O=C(NCCC(F)(F)F)c1ncccc1C1=CCN(S(=O)(=O)c2cccc(C(F)(F)F)c2)CC1" is 2.62

The compound listed as "CC(C)CS(=O)(=O)N1CC=C(c2cccc(C(=O)NC3CC3)n2)CC1" shows log10(IC50) equal to 3.16

The compound listed as "O=C(NC1CC1)c1cccc(C2=CCN(S(=O)(=O)c3ccccn3)CC2)n1" has a reported log10(IC50) of 4.00

log10(IC50) in this record for "O=C(NC1CC1)c1cccc(C2=CCN(S(=O)(=O)Cc3cccc(C(F)(F)F)c3)CC2)n1" : 2.83

Sure, the documented log10(IC50) for "O=C(Nc1ccc(F)cc1)c1cccc(C2=CCN(S(=O)(=O)c3ccc(OC(F)(F)F)cc3)CC2)n1" is 3.28

For "O=C(NC1CC1)c1cccc(C2=CCN(S(=O)(=O)C3CCCC3)CC2)n1" the compound record lists log10(IC50) as 3.43

For reference, reported log10(IC50) for O=C(NC1CC1)c1cccc(C2=CCN(Cc3cc(C(F)(F)F)no3)CC2)n1 [Compound 76, hydrochloride] stands at 3.44

Looking up "O=C(NC1CC1)c1cccc(C2=CCN(S(=O)(=O)c3ccc(C(F)(F)F)cc3)CC2)n1" , I see its log10(IC50) listed as 2.04

For record "O=C(NC1CC1)c1cccc(C2=CCN(S(=O)(=O)C3CCCCC3)CC2)n1" the listed log10(IC50) is 2.51

// field: log10(IC50); key: "O=C(NC1CC1)c1cccc(C2=CCN(S(=O)(=O)CCC(F)(F)F)CC2)n1" ; value = 3.49

The compound "O=C(NCC(F)(F)F)c1ncccc1C1=CCN(S(=O)(=O)c2cccc(C(F)(F)F)c2)CC1" showed log10(IC50) equal to 2.82

Reported log10(IC50) of "O=C(NCC1CC1)c1ncccc1C1=CCN(S(=O)(=O)c2ccc(OC(F)(F)F)cc2)CC1" : 2.84

Entry "O=C(NCC(F)(F)F)c1ncccc1C1=CCN(S(=O)(=O)c2ccc(OC(F)(F)F)cc2)CC1" ; log10(IC50) = 2.98

---

Please respond with reported IC50 for every item in the list.
Target: N-type calcium channel (NTCC) (Homo sapiens, UniProt Q00975)
Construct: endogenous in cells
Test: FLIPR calcium mobilization assay for N-type calcium channel (differentiated IMR32 cells)
Conditions: N-type calcium channel blockers, calcium mobilization in vitro assay
Report only the number, with the unit nM understood.

The compound identified as "O=C(NC1CC1)c1cccc(C2=CCN(S(=O)(=O)c3c(F)cc(F)cc3F)CC2)n1" registered its IC50 at 990

// IC50 value for O=C(NC1CC1)c1cccc(C2=CCN(S(=O)(=O)c3cccc(C(F)(F)F)c3)CC2)n1 [Compound 7] : 30

IC50 measured on "O=C(NC1CC1)c1cccc(C2=CCN(S(=O)(=O)c3ccsc3)CC2)n1" = 1050

Notebook: O=C(NC1CC1)c1cccc(C2=CCN(C(c3ccc(OC(F)(F)F)cc3)C(F)(F)F)CC2)n1 (centres unmarked) [Compound 64] , IC50 read as 320

---

Molecular target: N-type calcium channel (NTCC) (Homo sapiens, UniProt Q00975)
Construct: endogenous in cells
Assay: FLIPR calcium mobilization assay for N-type calcium channel (differentiated IMR32 cells)
Conditions: N-type calcium channel blockers, calcium mobilization in vitro assay
Method: Cell maintenance and differentiation. Unless noted otherwise, cell culture reagents were purchased from Mediatech of Herndon, Md. […] One day prior to performing this assay, differentiated IMR32 cells were treated with 1× CellStripper, and seeded on poly-D-lysine-coated 96-well clear-bottom black plates (Becton Dickinson, Franklin Lakes, N.J.) at 200,000 cells/well. […] Plates were then transferred to a Fluorimetric Imaging Plate Reader (FLIPR^96, Molecular Devices, Inc., Sunnyvale, Calif.) for assay. […]
pIC50: −log10 of the molar value.
attribute-measured: pIC50

// assay N-type calcium channel (NTCC) (Homo sapiens, UniProt Q00975), entry NC(=O)c1ccnc(C2=CCN(S(=O)(=O)c3ccc(OC(F)(F)F)cc3)CC2)n1 [Compound 15] , pIC50 value = < 4.70

Measured on N-type calcium channel (NTCC) (Homo sapiens, UniProt Q00975), "COC(=O)c1ncccc1C1=CCN(S(=O)(=O)c2cccc(C(F)(F)F)c2)CC1" has a documented pIC50 of < 4.70

The reported pIC50 value, N-type calcium channel (NTCC) (Homo sapiens, UniProt Q00975), for "CN(C)S(=O)(=O)N1CC=C(c2cccc(C(=O)NC3CC3)n2)CC1" reads < 4.70
